Test system: 782815-120-R-J1-PDC complex spheroid viability
ASSAY_NOTES: Anticancer human tumor 782815-120-R-J1-PDC patient-derived colon adenocarcinoma cell line growth inhibition [RAS]
ASSAY_CONDITIONS: second compound 0.0316 µM; first compound 0.01 µM; hits give low values
PROPERTY_LABEL: viability, T/C

{"MOLECULE": "Nc1ccn(C2OC(CO)C(O)C2(F)F)c(=O)n1 (stereo not given) + C#Cc1c(F)ccc2cc(O)cc(-c3ncc4c(N5CC6CCC(C5)N6)nc(OCC56CCCN5CC(F)C6)nc4c3F)c12", "viability, T/C": "92.8%"}
{"MOLECULE": "CC(C)n1nc(-c2ccc3oc(N)nc3c2)c2c(N)ncnc21 + C#Cc1c(F)ccc2cc(O)cc(-c3ncc4c(N5CC6CCC(C5)N6)nc(OCC56CCCN5CC(F)C6)nc4c3F)c12", "viability, T/C": "98.1%"}
{"MOLECULE": "C=CC(=O)Nc1cc(Nc2nccc(-c3cn(C)c4ccccc34)n2)c(OC)cc1N(C)CCN(C)C + C#Cc1c(F)ccc2cc(O)cc(-c3ncc4c(N5CC6CCC(C5)N6)nc(OCC56CCCN5CC(F)C6)nc4c3F)c12", "viability, T/C": "93.8%"}
{"MOLECULE": "CCN1CCN(Cc2ccc(Nc3ncc(F)c(-c4cc(F)c5nc(C)n(C(C)C)c5c4)n3)nc2)CC1 + C=CC(=O)N1CCN(c2nc(OCC3CCCN3C)nc3c(F)c(-c4nc(N)cc(C)c4C(F)(F)F)c(Cl)cc23)C(C)C1", "viability, T/C": "105%"}

// next item, viability, T/C requested
Lab note: measured viability, T/C of Nc1ccn(C2OC(CO)C(O)C2(F)F)c(=O)n1 (stereo not given) + C=CC(=O)N1CCN(c2nc(OCC3CCCN3C)nc3c(F)c(-c4nc(N)cc(C)c4C(F)(F)F)c(Cl)cc23)C(C)C1 was 83.5%

---

Give measured viability, T/C for each item. Keep answers brief.
Tested on: 782815-120-R-J1-PDC complex spheroid viability
ASSAY_NOTES: Anticancer human tumor 782815-120-R-J1-PDC cell line growth inhibition [RAS];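 also: spheroids exposed to compounds for 7 days before reading; 100% = DMSO vehicle control viability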
ASSAY_CONDITIONS: second compound 0.003 µM; first compound 10 µM; hits give low values

List the reported viability, T/C of each molecule below.
1. NC1c2ccccc2OC12CCN(c1cnc3c(N4CCCc5ncccc54)n[nH]c3n1)CC2 (configuration not stated) + CCn1c(-c2cccnc2C(C)OC)c2c3cc(ccc31)N1CCOC(CC(NC(=O)C(C(C)C)N(C)C(=O)C3(F)CCN(C(=O)C#CC(C)(C)N(C)C)CC3)C(=O)N3CCCC(N3)C(=O)OCC(C)(C)C2)C1
2. CC(=O)OC12COC1CC(O)C1(C)C(=O)C(O)C3=C(C)C(OC(=O)C(O)C(NC(=O)OC(C)(C)C)c4ccccc4)CC(O)(C(OC(=O)c4ccccc4)C21)C3(C)C (configuration not stated) + CCn1c(-c2cc(N3CCN(C)CC3)cnc2C(C)OC)c2c3cc(ccc31)-c1csc(n1)CC(NC(=O)C1CC1C)C(=O)N1CCCC(N1)C(=O)OCC(C)(C)C2

1: 85.8%; 2: 25.7%

---

Answer each item with its documented viability, T/C.
System: 782815-120-R-J1-PDC complex spheroid viability
ASSAY_NOTES: Anticancer human tumor 782815-120-R-J1-PDC cell line growth inhibition [RAS];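 also: spheroids exposed to compounds for 7 days before reading; 100% = DMSO vehicle control viability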
ASSAY_CONDITIONS: second compound 0.0316 µM; first compound 10 µM; hits give low values
Numbers only, in %.

Use these answered entries as a reference point.
{"MOLECULE": "C[C@@H](NC(=O)c1ncnc(N)c1Cl)c1ncc(C(=O)Nc2cc(C(F)(F)F)c(Cl)cn2)s1 + C#Cc1c(F)ccc2cc(O)cc(-c3ncc4c(N5CC6CCC(C5)N6)nc(OCC56CCCN5CC(F)C6)nc4c3F)c12", "SYSTEM_NAME": "782815-120-R-J1-PDC complex spheroid viability", "viability, T/C, %": 72.3}
{"MOLECULE": "CCC(CC)c1cc(NC2CCC(N)C2)n2nccc2n1 (stereo not drawn) + C#Cc1c(F)ccc2cc(O)cc(-c3ncc4c(N5CC6CCC(C5)N6)nc(OCC56CCCN5CC(F)C6)nc4c3F)c12", "SYSTEM_NAME": "782815-120-R-J1-PDC complex spheroid viability", "viability, T/C, %": 1.67}

Given item CC(C)NCC(C(=O)N1CCN(c2ncnc3c2C(C)CC3O)CC1)c1ccc(Cl)cc1 (stereo not drawn) + C=CC(=O)N1CCN(c2nc(OCC3CCCN3C)nc3c(F)c(-c4nc(N)cc(C)c4C(F)(F)F)c(Cl)cc23)C(C)C1 , the value recorded as its viability, T/C is 101

---

Could you please report measured viability, T/C for the items listed next?
Test system: 782815-120-R-J1-PDC complex spheroid viability
ASSAY_NOTES: Anticancer human tumor 782815-120-R-J1-PDC cell line growth inhibition [RAS];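 also: spheroids exposed to compounds for 7 days before reading; 100% = DMSO vehicle control viability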
ASSAY_CONDITIONS: second compound 0.003 µM; first compound 0.1 µM; hits give low values
Give bare numbers, in %.

The following molecules have reported results that may help.
{"MOLECULE": "C[C@@H](NC(=O)c1ncnc(N)c1Cl)c1ncc(C(=O)Nc2cc(C(F)(F)F)c(Cl)cn2)s1 + CCn1c(-c2cccnc2C(C)OC)c2c3cc(ccc31)N1CCOC(CC(NC(=O)C(C(C)C)N(C)C(=O)C3(F)CCN(C(=O)C#CC(C)(C)N(C)C)CC3)C(=O)N3CCCC(N3)C(=O)OCC(C)(C)C2)C1", "REPORTED_MEASUREMENT": 100}
{"MOLECULE": "Cc1nc(N2CCC3(CC2)COC(C)C3N)c(CO)nc1Sc1ccnc(N)c1Cl (centres undefined) + CCn1c(-c2cc(N3CCN(C)CC3)cnc2C(C)OC)c2c3cc(ccc31)-c1csc(n1)CC(NC(=O)C1CC1C)C(=O)N1CCCC(N1)C(=O)OCC(C)(C)C2", "REPORTED_MEASUREMENT": 54.6}
{"MOLECULE": "CC(=O)OC12COC1CC(O)C1(C)C(=O)C(O)C3=C(C)C(OC(=O)C(O)C(NC(=O)OC(C)(C)C)c4ccccc4)CC(O)(C(OC(=O)c4ccccc4)C21)C3(C)C (centres undefined) + CCn1c(-c2cc(N3CCN(C)CC3)cnc2C(C)OC)c2c3cc(ccc31)-c1csc(n1)CC(NC(=O)C1CC1C)C(=O)N1CCCC(N1)C(=O)OCC(C)(C)C2", "REPORTED_MEASUREMENT": 24.6}

Let us move to another entry and its viability, T/C.
For this molecule ( CC(C)NCC(C(=O)N1CCN(c2ncnc3c2C(C)CC3O)CC1)c1ccc(Cl)cc1 (centres undefined) + CCn1c(-c2cc(N3CCN(C)CC3)cnc2C(C)OC)c2c3cc(ccc31)-c1csc(n1)CC(NC(=O)C1CC1C)C(=O)N1CCCC(N1)C(=O)OCC(C)(C)C2 ), measured viability, T/C is 54.8

---

Test system: 782815-120-R-J1-PDC complex spheroid viability
ASSAY_NOTES: Anticancer human tumor 782815-120-R-J1-PDC cell line growth inhibition [RAS];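 also: spheroids exposed to compounds for 7 days before reading; 100% = DMSO vehicle control viability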
ASSAY_CONDITIONS: second compound 0.3 µM; first compound 0.316 µM; hits give low values
Source text: RAS pathway inhibitors in Combinations in Complex Spheroids A high-throughput screen of multi-cell type tumor spheroids was designed to identify active combinations of RAS pathway inhibitors and targeted small molecules. Complex spheroids include a stromal component modeled by human endothelial cells (HUVEC) and fibroblasts modeled by human mesenchymal stem cells (MSCs). […] Compounds. […] If the clinical Cmax for an agent had not been determined, the highest concentration tested was 10 microM. […]
For each of the compounds below, state its viability, T/C.
Give bare numbers, in %.

For each listed entry, give its viability, T/C.
1. CC1(O)CCCC1n1c(=O)c(C(F)F)cc2cnc(NC3CCN(S(C)(=O)=O)CC3)nc21 (stereo not drawn) + CCn1c(-c2cccnc2C(C)OC)c2c3cc(ccc31)N1CCOC(CC(NC(=O)C(C(C)C)N(C)C(=O)C3(F)CCN(C(=O)C#CC(C)(C)N(C)C)CC3)C(=O)N3CCCC(N3)C(=O)OCC(C)(C)C2)C1
2. C=CC(=O)Nc1cc(Nc2nccc(-c3cn(C)c4ccccc34)n2)c(OC)cc1N(C)CCN(C)C + CCn1c(-c2cc(N3CCN(C)CC3)cnc2C(C)OC)c2c3cc(ccc31)-c1csc(n1)CC(NC(=O)C1CC1C)C(=O)N1CCCC(N1)C(=O)OCC(C)(C)C2
3. CC(=O)OC12COC1CC(O)C1(C)C(=O)C(O)C3=C(C)C(OC(=O)C(O)C(NC(=O)OC(C)(C)C)c4ccccc4)CC(O)(C(OC(=O)c4ccccc4)C21)C3(C)C (stereo not drawn) + CCn1c(-c2cc(N3CCN(C)CC3)cnc2C(C)OC)c2c3cc(ccc31)-c1csc(n1)CC(NC(=O)C1CC1C)C(=O)N1CCCC(N1)C(=O)OCC(C)(C)C2
4. C[C@@H](NC(=O)c1ncnc(N)c1Cl)c1ncc(C(=O)Nc2cc(C(F)(F)F)c(Cl)cn2)s1 + CCn1c(-c2cc(N3CCN(C)CC3)cnc2C(C)OC)c2c3cc(ccc31)-c1csc(n1)CC(NC(=O)C1CC1C)C(=O)N1CCCC(N1)C(=O)OCC(C)(C)C2
5. NC1c2ccccc2OC12CCN(c1cnc3c(N4CCCc5ncccc54)n[nH]c3n1)CC2 (stereo not drawn) + CCn1c(-c2cc(N3CCN(C)CC3)cnc2C(C)OC)c2c3cc(ccc31)-c1csc(n1)CC(NC(=O)C1CC1C)C(=O)N1CCCC(N1)C(=O)OCC(C)(C)C2
6. CC(C)NCC(C(=O)N1CCN(c2ncnc3c2C(C)CC3O)CC1)c1ccc(Cl)cc1 (stereo not drawn) + CCn1c(-c2cccnc2C(C)OC)c2c3cc(ccc31)N1CCOC(CC(NC(=O)C(C(C)C)N(C)C(=O)C3(F)CCN(C(=O)C#CC(C)(C)N(C)C)CC3)C(=O)N3CCCC(N3)C(=O)OCC(C)(C)C2)C1

[58, 16.3, 9.92, 23.1, 17.6, 90.4]

Give one value of viability, T/C per listed compound.
1. CCC(CC)c1cc(NC2CCC(N)C2)n2nccc2n1 (stereo not drawn) + CCn1c(-c2cc(N3CCN(C)CC3)cnc2C(C)OC)c2c3cc(ccc31)-c1csc(n1)CC(NC(=O)C1CC1C)C(=O)N1CCCC(N1)C(=O)OCC(C)(C)C2
2. CC(C)NCC(C(=O)N1CCN(c2ncnc3c2C(C)CC3O)CC1)c1ccc(Cl)cc1 (stereo not drawn) + CCn1c(-c2cc(N3CCN(C)CC3)cnc2C(C)OC)c2c3cc(ccc31)-c1csc(n1)CC(NC(=O)C1CC1C)C(=O)N1CCCC(N1)C(=O)OCC(C)(C)C2

1: 16.5; 2: 15.3
